// data source = PubChem BioAssay (NCI)

Quick reference for TGI among some molecules
- Tested on: SR leukemia
- Protocol: NCI tumour cell line growth inhibition, 48 h

Look over these answered cases.
Molecule | TGI
CCOC(=O)c1nc2ccc(C(F)(F)F)cc2nc1Oc1ccc(C(=O)OC)cc1 | > 100 µM
O=C(N/N=C/c1cc(Br)cc(Br)c1[O-])c1ccccc1O.O=C(N/N=C/c1cc(Br)cc(Br)c1[O-])c1ccccc1O.[Co+2] | 3.29 µM
c1ccc([I+]c2ccccc2)cc1 | > 100 µM

Kindly state the measured TGI obtained for O=c1oc2c(Cl)cc(Cl)cc2cc1C1=CSC2=NCCN12 with SR leukemia.
> 100 µM

Next molecule: COC(=O)C(CC1=C(O)Nc2ccccc2N1)/C(=N/NC(N)=O)C(=O)Nc1ccccc1C (configuration not stated)
48.5 µM
